target: human TRPC3 ion channel (Homo sapiens (Human), UniProt Q13507); assay: Inhibition of TRPC3 FLIPR Assay (membrane potential dye, OAG challenge); details: TRPC3 transfected AD293 cells, OAG at EC80; most potent isolated isomer; mean of minimum 2 experiments
Sequence (Q13507 whole entry): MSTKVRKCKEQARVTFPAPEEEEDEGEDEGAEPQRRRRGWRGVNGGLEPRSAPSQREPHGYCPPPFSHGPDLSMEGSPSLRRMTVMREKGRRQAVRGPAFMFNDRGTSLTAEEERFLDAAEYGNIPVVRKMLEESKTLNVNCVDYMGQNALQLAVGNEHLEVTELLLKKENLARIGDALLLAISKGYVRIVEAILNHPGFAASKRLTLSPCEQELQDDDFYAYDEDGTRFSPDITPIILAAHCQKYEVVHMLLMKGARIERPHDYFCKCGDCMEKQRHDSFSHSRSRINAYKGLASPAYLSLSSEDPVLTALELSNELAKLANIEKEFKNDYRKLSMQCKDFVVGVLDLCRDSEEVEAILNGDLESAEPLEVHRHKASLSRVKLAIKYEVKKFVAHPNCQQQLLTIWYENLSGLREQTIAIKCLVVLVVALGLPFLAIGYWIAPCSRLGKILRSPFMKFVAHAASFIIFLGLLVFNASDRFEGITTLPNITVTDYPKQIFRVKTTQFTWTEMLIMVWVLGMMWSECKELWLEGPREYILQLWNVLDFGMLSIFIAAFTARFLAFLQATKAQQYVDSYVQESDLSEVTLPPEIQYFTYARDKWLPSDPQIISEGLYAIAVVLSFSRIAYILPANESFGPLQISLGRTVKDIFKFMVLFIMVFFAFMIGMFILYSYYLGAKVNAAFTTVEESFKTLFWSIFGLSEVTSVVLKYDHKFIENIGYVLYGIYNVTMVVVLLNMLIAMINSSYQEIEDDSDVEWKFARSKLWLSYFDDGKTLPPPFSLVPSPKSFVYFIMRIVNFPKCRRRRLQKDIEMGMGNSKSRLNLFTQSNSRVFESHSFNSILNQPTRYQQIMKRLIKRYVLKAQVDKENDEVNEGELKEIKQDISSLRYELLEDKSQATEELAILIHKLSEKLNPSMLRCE
pIC50: −log10 of the molar value.
measurement type: pIC50

a = N#Cc1ccn(C2CC(c3ccc(F)cc3)CC2N2CCCC(N)C2)c1 (centres unmarked)
b = N#Cc1cnn(C2CC(c3ccc(F)cc3)CC2N2CCC(F)(F)C(N)C2)c1 (centres unmarked)
c = N#Cc1ccc(OC2CC(c3ccc(F)cc3)CC2N2CC(N)CC(F)(F)C2)cc1 (centres unmarked)
Q) Arrange the 3 compounds from largest to smallest pIC50. Order the labels as requested and list them.
A) a, b, c

* * *

molecular target: human TRPC6 ion channel (Homo sapiens (Human), UniProt Q9Y210); assay: Inhibition of TRPC6 FLIPR Assay (membrane potential dye, OAG challenge); conditions: TRPC6-HEK293 cells, OAG at EC80; most potent isolated isomer; mean of minimum 2 experiments
Sequence (Q9Y210 whole entry): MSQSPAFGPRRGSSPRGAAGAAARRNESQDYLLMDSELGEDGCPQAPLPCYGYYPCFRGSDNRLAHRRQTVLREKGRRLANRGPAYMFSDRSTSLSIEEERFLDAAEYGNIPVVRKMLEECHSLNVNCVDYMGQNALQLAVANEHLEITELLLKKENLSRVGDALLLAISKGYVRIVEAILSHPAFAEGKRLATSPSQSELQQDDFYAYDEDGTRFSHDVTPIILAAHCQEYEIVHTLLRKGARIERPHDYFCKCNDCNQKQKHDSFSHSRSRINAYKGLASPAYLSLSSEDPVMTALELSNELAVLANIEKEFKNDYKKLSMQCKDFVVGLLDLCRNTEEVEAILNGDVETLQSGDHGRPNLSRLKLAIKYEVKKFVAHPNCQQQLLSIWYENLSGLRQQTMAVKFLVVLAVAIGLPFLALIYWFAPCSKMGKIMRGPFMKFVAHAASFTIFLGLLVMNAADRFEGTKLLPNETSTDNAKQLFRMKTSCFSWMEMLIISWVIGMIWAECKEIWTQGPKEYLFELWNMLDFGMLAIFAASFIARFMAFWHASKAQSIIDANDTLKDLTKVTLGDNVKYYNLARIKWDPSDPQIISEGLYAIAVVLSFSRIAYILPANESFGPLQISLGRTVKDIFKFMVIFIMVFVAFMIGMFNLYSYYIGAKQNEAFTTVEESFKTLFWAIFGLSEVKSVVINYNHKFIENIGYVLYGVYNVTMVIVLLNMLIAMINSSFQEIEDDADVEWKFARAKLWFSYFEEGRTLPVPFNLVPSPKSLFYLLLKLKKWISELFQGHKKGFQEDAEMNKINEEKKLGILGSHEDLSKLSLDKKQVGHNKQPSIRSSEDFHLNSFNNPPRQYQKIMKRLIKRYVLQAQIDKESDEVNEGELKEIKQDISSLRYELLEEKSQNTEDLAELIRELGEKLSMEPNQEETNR
measurement type: IC50 (nM)

Examples with answers:
* N#Cc1cnn(C2CC(c3ccc(F)cc3)CC2N2CCC(F)(F)C(N)C2)c1 (centres unmarked) | 16.2
* NC1CCCN(C2CC(c3ccc(F)cc3)CC2n2ncnn2)C1 (centres unmarked) | 26.7
* COc1cc(C2CC(Oc3ccc(C#N)cc3)C(N3CCCC(N)C3)C2)ccc1F (centres unmarked) | 9.51

a = N#Cc1ccc(OC2CC(c3ccc(F)cc3)CC2N2CCCC(N)C2)cc1F (centres unmarked)
b = N#Cc1ccc(OC2CC(c3ccccc3)CC2N2CCCC(N)C2)c(Cl)c1 (centres unmarked)
Q) Pick one, a or b : lowest reported IC50. Field: selected label. Fill in the label of the entry you choose.
A) b

* * *

biological target: human TRPC6 ion channel (Homo sapiens (Human), UniProt Q9Y210); assay: Inhibition of TRPC6 FLIPR Assay (membrane potential dye, OAG challenge); format: cell-based; settings: TRPC6-HEK293 cells, OAG at EC80; most potent isolated isomer; mean of minimum 2 experiments
pIC50: −log10 of the molar value.
measurement type: pIC50

Examples with answers:
* N#Cc1ccc(OC2CC(c3ccc(F)cc3)CC2N2CCC[C@@H](N)C2)nc1 (single isomer, unassigned) | 8.02
* N#Cc1ccccc1OC1CC(c2ccccc2)CC1N1CCCC(N)C1 (stereo not drawn) | 7.85
* N#Cc1cn(C2CC(c3ccc(F)cc3)CC2N2CCCC(N)C2)nn1 (stereo not drawn) | 8.42
* N#Cc1ccc(OC2CC(c3cccc(F)c3)CC2N2CCCC(N)C2)c(Cl)c1 (stereo not drawn) | 7.71
* NC1CC(F)CN(C2CC(c3ccc(F)cc3)CC2n2cccn2)C1 (stereo not drawn) | 8.47
* N[C@@H]1C[C@@H](F)CN([C@@H]2C[C@H](c3ccc(F)cc3)C[C@H]2n2cncn2)C1 | 7.53

P = N[C@@H]1CCCN([C@H]2C[C@@H](c3ccc(F)cc3)C[C@@H]2Oc2cc(F)cnn2)C1
Q = Cc1cc(C#N)nnc1OC1CC(c2ccc(F)cc2)CC1N1CC(N)CC(F)C1 (stereo not drawn)
R = NC1CC(F)CN(C2CC(c3ccc(F)cc3)CC2Oc2ccncn2)C1 (stereo not drawn)
Q) Provide the items ranked by increasing pIC50. Order the labels as requested and list them.
A) Q, P, R
(Q: 7.54, P: 8.00, R: 8.46)

A = NC1CCCN(C2CC(c3ccc(F)cc3)CC2n2nccn2)C1 (stereo not drawn)
B = N#Cc1cnc(OC2CC(c3ccc(F)cc3)CC2N2CCCC(N)C2)cn1 (stereo not drawn)
C = N#Cc1ncn(C2CC(c3ccc(F)cc3)CC2N2CCCC(N)C2)n1 (stereo not drawn)
Q) Provide the items ranked by increasing pIC50. Order the labels as requested and list them.
A) B, C, A

I = NC1CCCN(C2CC(c3ccc(F)cc3)CC2n2cccn2)C1 (stereo not drawn)
II = N#Cc1cnc(OC2CC(c3ccc(F)cc3)CC2N2CCCC(N)C2)nc1 (stereo not drawn)
Q) Pick one, I or II : lowest reported pIC50. Field: selected label. Fill in the label of the entry you choose.
A) II

P = NC1CCCN(C2CC(c3ccc(F)cc3)CC2Oc2cccnn2)C1 (stereo not drawn)
Q = N#Cc1ncc(OC2CC(c3ccc(F)cc3)CC2N2CCCC(N)C2)cn1 (stereo not drawn)
Q) Endpoint returns the identifier whose pIC50 is numerically larger, either P or Q . Field: selected label. Fill in the label of the entry you choose.
A) Q
(Q: 7.97, P: 7.75)

* * *

target: human TRPC6 ion channel (Homo sapiens (Human)); experiment: Inhibition of TRPC6 FLIPR Assay (membrane potential dye, OAG challenge); details: TRPC6-HEK293 cells, OAG at EC80; most potent isolated isomer; mean of minimum 2 experiments
pIC50: −log10 of the molar value.
measurement type: pIC50

- N#Cc1cnn(C2CC(c3ccc(F)cc3)CC2N2CCCC(N)C2)c1 (stereo not drawn) [Example 2]: 8.10

a = NC1CCCN(C2CC(c3ccc(F)cc3)CC2Oc2nnccc2Cl)C1 (stereo not drawn) [Example 23]
b = NC1CC(F)CN(C2CC(c3ccc(F)cc3)CC2n2ncnn2)C1 (stereo not drawn) [Example 11]
Q) Endpoint returns the identifier whose pIC50 is numerically larger, either a or b . Field: selected label. Fill in the label of the entry you choose.
A) a

Hey, just so you know, these numbers are from patent US11274091B2.
